Assignment: determine reported inhibition for the given compounds.
- Target Of Assay: PRKAA1 PRKAB2 PRKAG1 (human) (UniProt O43741+Q13131+P54619)
- Sequence (O43741 whole entry, looked up): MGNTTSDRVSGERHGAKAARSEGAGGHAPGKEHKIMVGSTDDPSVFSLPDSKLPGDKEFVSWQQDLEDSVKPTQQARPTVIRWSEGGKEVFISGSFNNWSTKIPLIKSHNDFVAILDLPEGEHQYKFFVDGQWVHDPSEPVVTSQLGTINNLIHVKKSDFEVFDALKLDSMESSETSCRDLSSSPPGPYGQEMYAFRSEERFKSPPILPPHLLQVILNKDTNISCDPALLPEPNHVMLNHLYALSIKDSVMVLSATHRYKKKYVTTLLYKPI
- Sequence (P54619 whole entry, looked up): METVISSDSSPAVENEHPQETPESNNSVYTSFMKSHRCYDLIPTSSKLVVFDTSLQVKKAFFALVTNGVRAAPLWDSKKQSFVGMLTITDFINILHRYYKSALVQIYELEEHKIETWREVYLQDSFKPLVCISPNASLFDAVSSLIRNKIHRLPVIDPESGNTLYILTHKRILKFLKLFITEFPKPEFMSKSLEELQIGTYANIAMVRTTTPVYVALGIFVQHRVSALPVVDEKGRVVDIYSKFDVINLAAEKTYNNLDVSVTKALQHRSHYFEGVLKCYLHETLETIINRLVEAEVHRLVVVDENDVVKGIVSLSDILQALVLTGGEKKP
- Sequence (Q13131 whole entry, looked up): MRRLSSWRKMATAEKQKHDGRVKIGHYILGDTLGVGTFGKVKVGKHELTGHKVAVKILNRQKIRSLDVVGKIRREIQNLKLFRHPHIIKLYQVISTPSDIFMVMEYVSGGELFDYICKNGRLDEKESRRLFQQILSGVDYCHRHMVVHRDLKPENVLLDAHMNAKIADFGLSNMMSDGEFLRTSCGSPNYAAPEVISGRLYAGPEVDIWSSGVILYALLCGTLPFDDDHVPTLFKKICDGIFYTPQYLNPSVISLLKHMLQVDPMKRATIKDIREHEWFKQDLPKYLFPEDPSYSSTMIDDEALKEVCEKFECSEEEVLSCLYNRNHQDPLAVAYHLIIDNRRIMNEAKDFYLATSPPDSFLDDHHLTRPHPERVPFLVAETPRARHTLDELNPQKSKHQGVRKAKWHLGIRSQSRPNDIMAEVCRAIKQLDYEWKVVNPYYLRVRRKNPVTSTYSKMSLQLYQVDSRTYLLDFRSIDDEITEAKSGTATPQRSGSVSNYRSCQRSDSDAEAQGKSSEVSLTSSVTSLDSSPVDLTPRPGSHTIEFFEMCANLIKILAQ
- Assay Explanation: radiometric filter-binding kinase assay
- Measurement Setup: compound 100.0 µM; ATP 20 µM
Hey, just the number and the unit after it is fine.

Nc1cnc2c(-c3c(F)cccc3F)cccn2c1=O | 40%
O=c1cc(-c2ccccc2F)nc2[nH]ccn12 | 0%
O=C(c1cccc(-c2cc3c(=O)[nH]cnc3s2)c1)N1CCOCC1 | 50%
CC(=O)Nc1nc2cnc(-c3c(C)cccc3C)cn2n1 | 0%

Value sought for every listed compound: inhibition.
1. O=c1c(NC(=S)NCc2ccccc2)cnc2[nH]ccn12
2. Cc1cccc(C)c1-c1cn2nc(N)nc2cn1
3. CC(C)(C)Nc1c(COCc2ccccc2)nc2[nH]cnn12
4. CC1CN(c2nc3ccccn3c(=O)c2N)CC(C)O1 (stereo not given)
5. CC(=O)Nc1nc2cnc(-c3ccccc3)cn2n1
6. O=C(Nc1cnc2[nH]ccn2c1=O)c1ccccc1

1: 0%; 2: 12%; 3: 18%; 4: 2%; 5: 14%; 6: 0%

* * *

- Target Of Assay: PTK6 (human)
- Assay Explanation: radiometric filter-binding kinase assay
- Measurement Setup: compound 100.0 µM; ATP 20 µM
Value Type: inhibition (%)
Answers are plain numbers, in %.

Some compounds with recorded inhibition:
O=C(Nc1cnc2[nH]ccn2c1=O)c1ccccc1 | 30
CC1CN(c2nc3ccccn3c(=O)c2N)CC(C)O1 (stereo not given) | 21
COc1ccc(-c2cc3c(=O)[nH]cnc3s2)cc1OC | 16
O=C(Nc1cnc2[nH]cnn2c1=O)c1ccccc1 | 19
O=c1cc(-c2ccccc2F)nc2[nH]ccn12 | 30

Value sought for every listed compound: inhibition.
1. Nc1nc2cnc(-c3ccccc3)cn2n1
2. O=c1c(NC(=S)NCc2ccccc2)cnc2[nH]ccn12
3. COc1ccc(NC(=S)Nc2cnc3[nH]cnn3c2=O)cn1
4. CC(=O)Nc1nc2cnc(-c3c(C)cccc3C)cn2n1
5. CC(C)(C)Nc1c(C2CC2)nc2[nH]cnn12
6. Cc1cccc(C)c1-c1cn2nc(N)nc2cn1
7. CC(C)(C)Nc1c(COCc2ccccc2)nc2[nH]cnn12
8. O=C(c1cccc(-c2cc3c(=O)[nH]cnc3s2)c1)N1CCOCC1

1: 53; 2: 31; 3: 9; 4: 0; 5: 25; 6: 15; 7: 21; 8: 50

Value sought for every listed compound: inhibition.
1. Nc1cnc2c(-c3c(F)cccc3F)cccn2c1=O
2. CC(=O)Nc1nc2cnc(-c3ccccc3)cn2n1

67
1

* * *

- Target Of Assay: MARK4 (human)
- Assay Explanation: radiometric filter-binding kinase assay
- Measurement Setup: compound 100.0 µM; ATP 50 µM
Binary classification by inhibition, with 10% as an inclusive lower bound for TRUE; all other cases are FALSE.

Worked cases, answers included:
O=C(c1cccc(-c2cc3c(=O)[nH]cnc3s2)c1)N1CCOCC1 | FALSE
CC(C)(C)Nc1c(C2CC2)nc2[nH]cnn12 | TRUE
CC(=O)Nc1nc2cnc(-c3c(C)cccc3C)cn2n1 | TRUE
O=c1c(NC(=S)NCc2ccccc2)cnc2[nH]ccn12 | TRUE
COc1ccc(NC(=S)Nc2cnc3[nH]cnn3c2=O)cn1 | TRUE
COc1ccc(-c2cc3c(=O)[nH]cnc3s2)cc1OC | TRUE
O=c1cc(-c2ccccc2F)nc2[nH]ccn12 | FALSE
Nc1nc2cnc(-c3ccccc3)cn2n1 | TRUE

Check this molecule for inhibition at or above 10%: O=C(Nc1cnc2[nH]ccn2c1=O)c1ccccc1 TRUE

Check this molecule for inhibition at or above 10%: Nc1cnc2c(-c3c(F)cccc3F)cccn2c1=O TRUE

Check this molecule for inhibition at or above 10%: CC1CN(c2nc3ccccn3c(=O)c2N)CC(C)O1 (stereo not given) TRUE

Check this molecule for inhibition at or above 10%: CC(C)(C)Nc1c(COCc2ccccc2)nc2[nH]cnn12 TRUE

Check this molecule for inhibition at or above 10%: Cc1cccc(C)c1-c1cn2nc(N)nc2cn1 TRUE

Check this molecule for inhibition at or above 10%: O=C(Nc1cnc2[nH]cnn2c1=O)c1ccccc1 FALSE

Check this molecule for inhibition at or above 10%: CC(=O)Nc1nc2cnc(-c3ccccc3)cn2n1 FALSE
